target: GLP-1R (Homo sapiens); assay: GLP-1R Activation - cAMP Assay; assay type: cell-based; settings: cAMP increase in CHO cells stably expressing GLP-1R; each compound run on one of the two cAMP assays (Assay 1 or Assay 2, not specified)
Sequence (P43220 24-463): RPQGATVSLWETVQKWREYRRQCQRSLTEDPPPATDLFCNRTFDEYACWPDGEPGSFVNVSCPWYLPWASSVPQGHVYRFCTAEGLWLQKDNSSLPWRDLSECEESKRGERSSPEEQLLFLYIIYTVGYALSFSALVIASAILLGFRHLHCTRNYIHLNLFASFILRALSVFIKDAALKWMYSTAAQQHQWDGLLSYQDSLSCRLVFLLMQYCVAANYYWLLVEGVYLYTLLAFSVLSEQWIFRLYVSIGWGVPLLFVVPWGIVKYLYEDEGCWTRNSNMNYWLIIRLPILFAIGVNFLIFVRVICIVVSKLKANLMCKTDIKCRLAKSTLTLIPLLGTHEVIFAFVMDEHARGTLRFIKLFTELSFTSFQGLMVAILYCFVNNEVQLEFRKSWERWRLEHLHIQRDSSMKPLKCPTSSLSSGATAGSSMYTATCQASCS
Note to self: EC50 under 0.09 nM means 1 (yes), ties and anything higher get 0 (no).

1) CC1(C)COC[C@H]1n1c(Cc2c(F)cc(-c3ccc(F)c(OCc4ccc(F)cc4)n3)c(F)c2F)nc2ccc(C(=O)O)cc21    0 (no)
2) CC1(C)COC[C@H]1n1c(Cc2cc(F)c(-c3ccnc(OCc4ccc(F)cc4)n3)cc2F)nc2ccc(C(=O)O)cc21    0 (no)
3) COC(=O)N1Cc2ccc(COc3nc(-c4cc(F)c(Cc5nc6c(F)cc(C(=O)O)cc6n5C[C@@H]5CCO5)cc4F)ccc3F)cc2C1    1 (yes)
4) CC1(C)COCC1n1c(Cc2cc(F)c(-c3ccc(F)c(OCc4ccc(Cl)cc4F)n3)cc2F)nc2c(F)cc(C(=O)O)cc21 (stereo not drawn)    0 (no)
5) Cc1cc(F)ccc1COc1cccc(-c2cc(F)c(Cc3nc4ccc(C(=O)O)cc4n3[C@@H]3COCC3(C)C)cc2F)n1    0 (no)
6) CC1(C)COC[C@H]1n1c(Cc2cc(F)c(-c3cccc(OCc4ccc(C#N)cc4F)n3)cc2F)nc2ccc(C(=O)O)nc21    0 (no)
7) COCCn1c(Cc2c(F)cc(-c3cccc(OCc4ccc(Cl)cc4F)n3)c(F)c2F)nc2c(F)cc(C(=O)O)cc21    1 (yes)
